test system: adenovirus; experiment: Mouse pneumonia model, viral pneumonia; type: in vivo, BALB/C mice; details: average values±standard deviation
No end group written: not given here.
result.type: Inhibitory effect on pulmonary infections, Viral pneumonia
Form field (numeric): enter value without unit.

# example entries with known answers
>>> data_value("RGADRAGGGGPRCYCGE (cysteine pairing not given here) [Polypeptide IV]")
58.07
>>> data_value("RGADRAGGGGPRCWCGE (cysteine pairing not given here) [Polypeptide II]")
70.33
>>> data_value("RGADRAGGGGPRCWRGE [Polypeptide I]")
58.00

Quick one: Inhibitory effect on pulmonary infections, Viral pneumonia for RGADRAGGGGPRCYRGE [Polypeptide III] ?
65.49

* * *

test system: myelofibrosis model mice; assay: Myelofibrosis model induced by rh EPO; format: in vivo, Kunming mice; set-up: unit not given here; settings: peripheral blood; 10 mg/kg subcutaneous twice a day, 28 days
No end group written: not given here.
result.type: RDW
Form field (numeric): enter value without unit.

Quick one: RDW for RGADRAGGGGPRCYRGE [Polypeptide III] ?
28

Next: RGADRAGGGGPRCYCGE (cysteine pairing not given here) [Polypeptide IV]
24

Next: RGADRAGGGGPRCWRGE [Polypeptide I]
31

Next: RGADRAGGGGPRCWCGE (cysteine pairing not given here) [Polypeptide II]
26

* * *

test system: mycoplasma pneumoniae; test: Mouse pneumonia model, mycoplasma pneumonia; assay type: in vivo, BALB/C mice; details: average values±standard deviation
No end group written: not given here.
Item-by-item account of Inhibitory effect on pulmonary infections, Mycoplasma pneumonia
Form field (numeric): enter value without unit.

>>> data_value("RGADRAGGGGPRCYCGE (cysteine pairing not given here) [Polypeptide IV]")
43.27
>>> data_value("RGADRAGGGGPRCWCGE (cysteine pairing not given here) [Polypeptide II]")
54.69
>>> data_value("RGADRAGGGGPRCYRGE [Polypeptide III]")
43.93

Consider now this further sequence.
Quick one: Inhibitory effect on pulmonary infections, Mycoplasma pneumonia for RGADRAGGGGPRCWRGE [Polypeptide I] ?
41.48

* * *

test system: myelofibrosis model mice; assay: Myelofibrosis model induced by rh EPO; format: in vivo, Kunming mice; design: unit not given here; conditions: peripheral blood; 10 mg/kg subcutaneous twice a day, 28 days
No end group written: not given here.
result.type: WBC
Form field (numeric): enter value without unit.

# example entries with known answers
>>> data_value("RGADRAGGGGPRCYRGE [Polypeptide III]")
5.79
>>> data_value("RGADRAGGGGPRCWCGE (cysteine pairing not given here) [Polypeptide II]")
5.61
>>> data_value("RGADRAGGGGPRCWRGE [Polypeptide I]")
5.97

Consider now this further sequence.
Quick one: WBC for RGADRAGGGGPRCYCGE (cysteine pairing not given here) [Polypeptide IV] ?
5.83

From: patent US12404303B2
